system: T47D; experiment: Induction of apoptosis in human T47D cells assessed as caspase 3 activation after 24 hrs; type: functional, cell-based
pEC50: −log10 of the molar value.
Reported Property: pEC50

{"columns": ["Test Smiles", "pEC50"],
 "data": [
  ["CC(C)=CC[C@]12OC(C)(C)C3C[C@@]4(OC(c5ccccc5)=CC(=O)C4=C[C@@H]31)C2=O", 5.32],
  ["CC(C)=CC[C@@]12OC(C)(C)C3C[C@H](C=C4C(=O)C=C(c5ccccc5)O[C@]431)C2=O", 5.29]
]}

###

test system: T47D; experiment: Induction of apoptosis in human T47D cells assessed as caspase 3 activation after 24 hrs; format: functional, cell-based
Reported Property: EC50 (nM)

{"columns": ["Compound", "EC50 [nM]"],
 "data": [
  ["CC(C)=CC[C@@]12OC(C)(C)C3C[C@H](C=C4C(=O)c5ccccc5O[C@]431)C2=O", 3000],
  ["CC(C)=CCC[C@]1(C)C=Cc2c(O)c3c(c(CC=C(C)C)c2O1)O[C@]12C(=C[C@@H]4C[C@H]1C(C)(C)O[C@@]2(C/C=C(/C)C(=O)O)C4=O)C3=O [GAMBOGIC ACID]", 700]
]}

[P] C=CC[C@]12OCC3C[C@@]4(Oc5ccccc5C(=O)C4=C[C@@H]31)C2=O
[Q] CC(C)=CC[C@]12OC(C)(C)C3C[C@@]4(Oc5ccccc5C(=O)C4=C[C@@H]31)C2=O
Dear colleague, could you let me know whether P or Q has the lower recorded EC50? Thanks. Let me know the label of the one you choose.
Q
(Q: 2700 nM, P: 5900 nM)

###

The entries below are paired with their reported pEC50.
test system: T47D; assay: Induction of apoptosis in human T47D cells assessed as caspase 3 activation after 24 hrs; assay type: functional, cell-based
pEC50: −log10 of the molar value.

Consider the reported pEC50 for these molecules:
{"columns": ["Molecule", "pEC50"],
 "data": [
  ["C=CC[C@@]12C=C(C(=O)c3ccccc3)[C@]3(CC=C)C(CO[C@@]3(CC=C)C1=O)C2", "< 4.70"],
  ["CC(C)=CCC[C@]1(C)C=Cc2c(O)c3c(c(CC=C(C)C)c2O1)O[C@]12C(C[C@H]4CC1C(C)(C)O[C@@]2(C/C=C(\\C)C(=O)O)C4=O)C3=O (stereo partly drawn)", "< 4.70"]
]}

Item C=CC[C@@]12OCC3C[C@H](C=C4C(=O)c5ccccc5O[C@]431)C2=O has what recorded pEC50?
< 4.70

The reported numbers originate from ChEMBL document CHEMBL1144751.
